Read-out record for C. parapsilosis ATCC 22019: MIC
Express your answer in µg/mL, writing the number without its unit.

Recall the recorded MIC for CCC(C)n1ncn(-c2ccc(N3CCN(c4ccc(OCC5COC(Cn6cncn6)(c6ccc(Cl)cc6Cl)O5)cc4)CC3)cc2)c1=O (stereo not shown) [ITC, itraconazole] with C. parapsilosis ATCC 22019 and state it. 0.35

Recall the recorded MIC for CC[C@H](C)C[C@H](C)CCCCCCCCC(=O)N[C@H]1C[C@@H](O)[C@@H](NCCN)NC(=O)[C@@H]2[C@@H](O)CCN2C(=O)[C@H]([C@H](O)CCN)NC(=O)[C@H]([C@H](O)[C@@H](O)c2ccc(O)cc2)NC(=O)[C@@H]2C[C@@H](O)CN2C(=O)[C@H]([C@@H](C)O)NC1=O [CSF, caspofungin] with C. parapsilosis ATCC 22019 and state it. 1

Recall the recorded MIC for C[C@@H]1[C@H](O)[C@@H](C)/C=C/C=C/C=C/C=C/C=C/C=C/C=C/[C@H](O[C@@H]2O[C@H](C)[C@@H](O)[C@H](N)[C@@H]2O)C[C@@H]2O[C@](O)(C[C@@H](O)C[C@@H](O)[C@H](O)CC[C@@H](O)C[C@@H](O)CC(=O)O[C@H]1C)C[C@H](O)[C@H]2C(=O)O [AMB, amphotericin B] with C. parapsilosis ATCC 22019 and state it. 0.06

Recall the recorded MIC for OC(Cn1cncn1)(Cn1cncn1)c1ccc(F)cc1F [FLC, fluconazole] with C. parapsilosis ATCC 22019 and state it. 0.7
